Listing: pKd of selected binders
# test.target: KEAP1_(312–624), human KEAP1 Kelch repeat domain (human) (UniProt Q14145)
# assay.protocol: fluorescence polarisation
pKd: −log10 of the molar value.
measured.metric: pKd

* Nrf2_(34–100) D77A (domain or fragment) REVFDFSQRRKEYELEKQKKLEKERQEQLQKEQEKAFFAQLQLAEETGEFLPIQPAQHIQSETSGSA | 5.36
* Nrf2_(34–100) F83A (domain or fragment) REVFDFSQRRKEYELEKQKKLEKERQEQLQKEQEKAFFAQLQLDEETGEALPIQPAQHIQSETSGSA | 7.74
* Nrf2_(34–100) E78A (domain or fragment) REVFDFSQRRKEYELEKQKKLEKERQEQLQKEQEKAFFAQLQLDAETGEFLPIQPAQHIQSETSGSA | 7.60
* Nrf2_(34–100) T80A (domain or fragment) REVFDFSQRRKEYELEKQKKLEKERQEQLQKEQEKAFFAQLQLDEEAGEFLPIQPAQHIQSETSGSA | 4.59
* Nrf2_(1–100) (domain or fragment) MMDLELPPPGLPSQQDMDLIDILWRQDIDLGVSREVFDFSQRRKEYELEKQKKLEKERQEQLQKEQEKAFFAQLQLDEETGEFLPIQPAQHIQSETSGSA | 8.00
